Molecular target: glycolate oxidase (GOX) in HepaRG-CAR cells (Homo sapiens (Human), UniProt Q9UJM8)
Sequence (Q9UJM8 whole entry): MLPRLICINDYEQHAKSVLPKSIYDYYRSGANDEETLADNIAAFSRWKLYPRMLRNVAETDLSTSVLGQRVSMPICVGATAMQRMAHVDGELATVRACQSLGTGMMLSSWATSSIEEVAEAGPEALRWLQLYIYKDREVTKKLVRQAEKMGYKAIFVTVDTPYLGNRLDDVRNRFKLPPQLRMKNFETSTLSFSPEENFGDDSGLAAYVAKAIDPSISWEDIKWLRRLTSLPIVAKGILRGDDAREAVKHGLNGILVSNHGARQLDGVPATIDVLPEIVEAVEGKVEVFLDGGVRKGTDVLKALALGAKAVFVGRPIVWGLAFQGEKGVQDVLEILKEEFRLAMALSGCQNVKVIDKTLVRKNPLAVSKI
Assay: HepaRG-CAR cell-based assay for quantitation of glycolate oxidase inhibition (cellular glycolate flux, GC-MS)
Settings: HepaRG-CAR cells, 500 μM glycolate, 48 hours incubation; read-out: IC50
reportedMetric: IC50

Record excerpt, results attached:
givenSmiles | IC50
O=C(O)c1nn[nH]c1Oc1cccc(-c2cccnc2)c1 | 2000 nM
O=C(O)c1nn[nH]c1Oc1cccc(-c2ccc(Cl)c(Cl)c2)c1 | 5000 nM
O=C(O)c1[nH]nnc1Oc1ccc(-c2ccc(Cl)cc2)cc1 | 10000 nM
O=C(O)c1nn[nH]c1Sc1ccc(Cl)cc1 | 1000 nM
O=C(O)c1nn[nH]c1Oc1cncc(-c2ccccc2)c1 | > 10000 nM

Go through the items and report each one's IC50.
1. CS(=O)(=O)c1ccc(-c2cccc(Oc3[nH]nnc3C(=O)O)c2)cc1
2. O=C(O)c1nn[nH]c1Oc1ccc2ccccc2c1
3. O=C(O)c1nn[nH]c1Oc1ccc(-c2ccccc2)nc1
4. O=C(O)c1nn[nH]c1Oc1cccc(-c2ccc(Cl)cc2)c1

A.
2500 nM
2000 nM
> 10000 nM
2000 nM

###

Kindly supply the reported recovery at 5 h, 1 μM values for the records listed here.
Experiment: Protein binding (plasma equilibrium dialysis)
Assay type: in vitro ADME
Details: 5 hours at 37° C.
Give bare numbers, in %.

Record excerpt, results attached:
compound | unitText | recovery at 5 h, 1 μM
O=C(O)c1nn[nH]c1Oc1ccc(-c2ccccc2)nc1 | % | 111
O=C(O)c1nn[nH]c1Sc1ccc(Cl)cc1 | % | 75.4

Go through the items and report each one's recovery at 5 h, 1 μM.
1. O=C(O)c1nn[nH]c1Oc1cccc(-c2ccccc2F)c1
2. O=C(O)c1nn[nH]c1Oc1ccc(S(F)(F)(F)(F)F)cc1
3. Cc1cc(Oc2[nH]nnc2C(=O)O)ccc1Br
4. N#Cc1cccc(-c2ccc(Oc3[nH]nnc3C(=O)O)cc2)c1
5. O=C(O)c1nn[nH]c1Oc1cccc(S(F)(F)(F)(F)F)c1

A.
1. 94.4
2. 107
3. 105
4. 113
5. 91.8

Go through the items and report each one's recovery at 5 h, 1 μM.
1. O=C(O)c1nn[nH]c1Oc1ccc(C2CC2)cc1
2. CC(C)=Cc1cccc(Oc2[nH]nnc2C(=O)O)c1
3. O=C(O)c1nn[nH]c1Sc1ccc2ccccc2c1
4. CCCC(C)c1cccc(Oc2[nH]nnc2C(=O)O)c1 (centres unmarked)
5. O=C(O)c1nn[nH]c1Oc1cncc(-c2ccccc2)c1

A.
1. 111
2. 103
3. 117
4. 108
5. 120

Go through the items and report each one's recovery at 5 h, 1 μM.
1. COc1ccc(-c2ccc(Oc3[nH]nnc3C(=O)O)cc2)cc1OC
2. O=C(O)c1nn[nH]c1Oc1ccc(-c2ccc3c(c2)OCO3)cc1
3. COc1cccc(-c2ccc(Oc3[nH]nnc3C(=O)O)cc2)c1
4. O=C(O)c1nn[nH]c1Oc1cccc(C2CCCCC2)c1
5. O=C(O)c1nn[nH]c1Oc1cccc(-c2cc(Cl)cc(Cl)c2)c1

A.
[101, 105, 92.5, 106, 104]

Go through the items and report each one's recovery at 5 h, 1 μM.
1. O=C(O)c1nn[nH]c1Oc1cccc(C2CCC2)c1
2. CCC(CC)c1cccc(Oc2[nH]nnc2C(=O)O)c1
3. O=C(O)c1nn[nH]c1Oc1cccc(-c2cccnc2)c1

A.
1: 98.2; 2: 108; 3: 105
